Entry source: patent US8026219B2

Test system: erythrocytes from fresh human blood
condition.parameters: 250 μM peptide, 5% erythrocytes, 1 h at 37° C., relative to 200 μM melittin
recorded.metric: % Haemolysis 250 μM

[in] Let me know recorded % Haemolysis 250 μM for CC[C@H](C)[C@H](NC(=O)[C@H](CCCCN)NC(=O)[C@H](CCCCN)NC(=O)[C@H](Cc1ccccc1)NC(=O)[C@H](CC(C)C)NC(=O)[C@H](CCCCN)NC(=O)[C@@H](N)CC(C)C)C(=O)N[C@@H](CC(C)C)C(=O)N[C@@H](CCCCN)C(=O)N[C@@H](Cc1ccc(O)cc1)C(=O)N[C@@H](CC(C)C)C(N)=O , thanks.
[out] 90%

---

So I've got a bunch of compounds here, and I need their metabolised at 0.75 h, 50 μg/ml values.
measured.target: UniProt:P06873
Sequence (P06873 106-384): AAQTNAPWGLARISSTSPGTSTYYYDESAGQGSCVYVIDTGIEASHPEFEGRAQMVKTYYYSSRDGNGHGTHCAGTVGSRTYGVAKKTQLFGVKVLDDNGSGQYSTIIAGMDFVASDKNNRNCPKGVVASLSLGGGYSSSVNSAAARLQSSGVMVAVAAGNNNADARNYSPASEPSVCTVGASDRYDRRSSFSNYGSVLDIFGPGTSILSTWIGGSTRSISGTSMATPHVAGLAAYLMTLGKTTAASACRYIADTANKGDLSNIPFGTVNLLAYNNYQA
assay: in vitro
condition.parameters: Proteinase K (1 μg/ml), pH 7.6
Residues, ends and D or L forms follow the SMILES beside them. *: point of attachment. Tos = Cc1ccc(S(=O)(=O)*)cc1; Bz = O=C(c1ccccc1)*
Give bare numbers, in %.

Worked examples, 2 compounds total:
| compound | unit.text | metabolised at 0.75 h, 50 μg/ml |
| --- | --- | --- |
| CC[C@H](C)[C@H](NC(=O)[C@H](CCCCN)NC(=O)[C@H](CCCCN)NC(=O)[C@H](Cc1ccccc1)NC(=O)[C@H](CC(C)C)NC(=O)[C@H](CCCCN)NC(=O)[C@H](Cc1c[nH]c2ccccc12)NC(=O)c1ccccc1)C(=O)N[C@@H](CC(C)C)C(=O)N[C@@H](CCCCN)C(=O)N[C@H](C(=O)N[C@@H](CC(C)C)C(N)=O)C(C)C [BP010] (Bz-WKLFKKILKVL-NH2) | % | 100 |
| CC[C@H](C)[C@H](NC(=O)[C@H](CCCCN)NC(=O)[C@H](CCCCN)NC(=O)[C@H](Cc1ccccc1)NC(=O)[C@H](CC(C)C)NC(=O)[C@H](CCCCN)NC(=O)[C@H](CCCCN)NS(=O)(=O)c1ccc(C)cc1)C(=O)N[C@@H](CC(C)C)C(=O)N[C@@H](CCCCN)C(=O)N[C@@H](CCCCN)C(=O)N[C@@H](CC(C)C)C(N)=O | % | 67 |

Please look at the following compound next.
[in] Let me know recorded metabolised at 0.75 h, 50 μg/ml for CC[C@H](C)[C@H](NC(=O)[C@H](CCCCN)NC(=O)[C@H](CCCCN)NC(=O)[C@H](Cc1ccccc1)NC(=O)[C@H](CC(C)C)NC(=O)[C@H](CCCCN)NC(=O)[C@H](Cc1c[nH]c2ccccc12)NS(=O)(=O)c1ccc(C)cc1)C(=O)N[C@@H](CC(C)C)C(=O)N[C@@H](CCCCN)C(=O)N[C@H](C(=O)N[C@@H](CC(C)C)C(N)=O)C(C)C [BP009] (Tos-WKLFKKILKVL-NH2) , thanks.
[out] 100

---

Tested on: erythrocytes from fresh human blood
condition.parameters: 250 μM peptide, 5% erythrocytes, 1 h at 37° C., relative to 200 μM melittin
Residues, ends and D or L forms follow the SMILES beside them. *: point of attachment. Tos = Cc1ccc(S(=O)(=O)*)cc1
recorded.metric: % Haemolysis 250 μM (%)
Answers are plain numbers, in %.

Worked examples, 6 compounds total:
| compound | recorded.metric | reported.result |
| --- | --- | --- |
| CC[C@H](C)[C@H](NC(=O)[C@H](CCCCN)NC(=O)[C@H](CCCCN)NC(=O)[C@H](Cc1ccccc1)NC(=O)[C@H](CC(C)C)NC(=O)[C@H](CCCCN)NC(=O)[C@H](CCCCN)NS(=O)(=O)c1ccc(C)cc1)C(=O)N[C@@H](CC(C)C)C(=O)N[C@@H](CCCCN)C(=O)N[C@@H](Cc1ccccc1)C(=O)N[C@@H](CC(C)C)C(N)=O | % Haemolysis 250 μM | 95 |
| CC[C@H](C)[C@H](NC(=O)[C@H](CCCCN)NC(=O)[C@H](CCCCN)NC(=O)[C@H](Cc1ccccc1)NC(=O)[C@H](CC(C)C)NC(=O)[C@H](CCCCN)NC(=O)[C@H](CCCCN)NS(=O)(=O)c1ccc(C)cc1)C(=O)N[C@@H](CC(C)C)C(=O)N[C@@H](CCCCN)C(=O)N[C@H](C(=O)N[C@@H](CC(C)C)C(N)=O)C(C)C | % Haemolysis 250 μM | 80 |
| CC[C@H](C)[C@H](NC(=O)[C@H](CCCCN)NC(=O)[C@H](CCCCN)NC(=O)[C@H](Cc1ccccc1)NC(=O)[C@H](CC(C)C)NC(=O)[C@H](CCCCN)NC(=O)[C@H](CCCCN)NS(=O)(=O)c1ccc(C)cc1)C(=O)N[C@@H](CC(C)C)C(=O)N[C@@H](CCCCN)C(=O)N[C@@H](Cc1ccc(O)cc1)C(=O)N[C@@H](CC(C)C)C(N)=O | % Haemolysis 250 μM | 80 |
| CC[C@H](C)[C@H](NC(=O)[C@H](CCCCN)NC(=O)[C@H](CCCCN)NC(=O)[C@H](Cc1ccccc1)NC(=O)[C@H](CC(C)C)NC(=O)[C@H](CCCCN)NC(=O)[C@H](CCCCN)NC(=O)c1ccccc1)C(=O)N[C@@H](CC(C)C)C(=O)N[C@@H](CCCCN)C(=O)N[C@@H](CCCCN)C(=O)N[C@@H](CC(C)C)C(N)=O | % Haemolysis 250 μM | 24 |
| CC[C@H](C)[C@H](NC(=O)[C@H](CCCCN)NC(=O)[C@H](CCCCN)NC(=O)[C@H](Cc1ccccc1)NC(=O)[C@H](CC(C)C)NC(=O)[C@H](CCCCN)NC(=O)[C@H](Cc1ccc(O)cc1)NS(=O)(=O)c1ccc(C)cc1)C(=O)N[C@@H](CC(C)C)C(=O)N[C@@H](CCCCN)C(=O)N[C@@H](CCCCN)C(=O)N[C@@H](CC(C)C)C(N)=O [BP121] (Tos-YKLFKKILKKL-NH2) | % Haemolysis 250 μM | 86 |
| CC[C@H](C)[C@H](NC(=O)[C@H](CCCCN)NC(=O)[C@H](CCCCN)NC(=O)[C@H](Cc1ccccc1)NC(=O)[C@H](CC(C)C)NC(=O)[C@H](CCCCN)NC(=O)[C@@H](N)CCCCN)C(=O)N[C@@H](CC(C)C)C(=O)N[C@@H](CCCCN)C(=O)N[C@H](C(=O)N[C@@H](CC(C)C)C(N)=O)C(C)C | % Haemolysis 250 μM | 45 |

Give % Haemolysis 250 μM for all compounds that follow.
1. CC[C@H](C)[C@H](NC(=O)[C@H](CCCCN)NC(=O)[C@H](CCCCN)NC(=O)[C@H](Cc1ccccc1)NC(=O)[C@H](CC(C)C)NC(=O)[C@H](CCCCN)NC(=O)[C@@H](N)Cc1c[nH]c2ccccc12)C(=O)N[C@@H](CC(C)C)C(=O)N[C@@H](CCCCN)C(=O)N[C@@H](Cc1ccc(O)cc1)C(=O)N[C@@H](CC(C)C)C(N)=O
2. CC[C@H](C)[C@H](NC(=O)[C@H](CCCCN)NC(=O)[C@H](CCCCN)NC(=O)[C@H](Cc1ccccc1)NC(=O)[C@H](CC(C)C)NC(=O)[C@H](CCCCN)NC(=O)[C@@H](N)CCCCN)C(=O)N[C@@H](CC(C)C)C(=O)N[C@@H](CCCCN)C(=O)N[C@@H](Cc1ccc(O)cc1)C(=O)N[C@@H](CC(C)C)C(N)=O
3. CC[C@H](C)[C@H](NC(=O)[C@H](CCCCN)NC(=O)[C@H](CCCCN)NC(=O)[C@H](Cc1ccccc1)NC(=O)[C@H](CC(C)C)NC(=O)[C@H](CCCCN)NC(=O)[C@H](CCCCN)NS(=O)(=O)c1ccc(C)cc1)C(=O)N[C@@H](CC(C)C)C(=O)N[C@@H](CCCCN)C(=O)N[C@@H](CCCCN)C(=O)N[C@@H](CC(C)C)C(N)=O
4. CC[C@H](C)[C@H](NC(=O)[C@H](CCCCN)NC(=O)[C@H](CCCCN)NC(=O)[C@H](Cc1ccccc1)NC(=O)[C@H](CC(C)C)NC(=O)[C@H](CCCCN)NC(=O)[C@@H](N)CCCCN)C(=O)N[C@@H](CC(C)C)C(=O)N[C@@H](CCCCN)C(=O)N[C@@H](Cc1c[nH]c2ccccc12)C(=O)N[C@@H](CC(C)C)C(N)=O
5. CC[C@H](C)[C@H](NC(=O)[C@H](CCCCN)NC(=O)[C@H](CCCCN)NC(=O)[C@H](Cc1ccccc1)NC(=O)[C@H](CC(C)C)NC(=O)[C@H](CCCCN)NC(=O)[C@H](Cc1ccc(O)cc1)NC(C)=O)C(=O)N[C@@H](CC(C)C)C(=O)N[C@@H](CCCCN)C(=O)N[C@@H](Cc1ccc(O)cc1)C(=O)N[C@@H](CC(C)C)C(N)=O
6. CC[C@H](C)[C@H](NC(=O)[C@H](CCCCN)NC(=O)[C@H](CCCCN)NC(=O)[C@H](Cc1ccccc1)NC(=O)[C@H](CC(C)C)NC(=O)[C@H](CCCCN)NC(=O)[C@H](CCCCN)NC(C)=O)C(=O)N[C@@H](CC(C)C)C(=O)N[C@@H](CCCCN)C(=O)N[C@@H](Cc1ccccc1)C(=O)N[C@@H](CC(C)C)C(N)=O
7. CC[C@H](C)[C@H](NC(=O)[C@H](CCCCN)NC(=O)[C@H](CCCCN)NC(=O)[C@H](Cc1ccccc1)NC(=O)[C@H](CC(C)C)NC(=O)[C@H](CCCCN)NC(=O)[C@H](CCCCN)NC(=O)c1ccccc1)C(=O)N[C@@H](CC(C)C)C(=O)N[C@@H](CCCCN)C(=O)N[C@@H](Cc1ccc(O)cc1)C(=O)N[C@@H](CC(C)C)C(N)=O

[out]
1. 72
2. 43
3. 23
4. 79
5. 85
6. 81
7. 80
